tested on: T47D cells; assay: Cell-based assay: anti-proliferative activity, Cell Counting Kit-8, 72 hours (T47D); conditions: Homo sapiens, T47D, 72 h
Doc: threshold 0.2 µM (exclusive). Items with IC50 beneath it return Yes; others return No.

# count of solved cases: 6
{"COMPOUND": "CN[C@H]1CC[C@H](n2cc(Nc3c(C(=O)C4CC4)cnc4ccc(-c5cc(Cl)c(O)c(Cl)c5)cc34)cn2)CC1 [Example 705]", "CATEGORY": "No"}
{"COMPOUND": "O=C(c1cnc2ccc(-c3cc(F)c(O)c(Cl)c3)cc2c1Nc1ccc(CN2CCCC2)cc1)C1CC1 [Example 396]", "CATEGORY": "No"}
{"COMPOUND": "CN1CCN(Cc2ccc(-c3c(C(=O)C4CC4)cnc4ccc(-c5cc(Cl)c(O)c(Cl)c5)cc34)cc2)CC1 [Example 482]", "CATEGORY": "No"}
{"COMPOUND": "CC(=O)c1cnc2ccc(-c3cc(Cl)c(O)c(Cl)c3)cc2c1N[C@H]1CC[C@H](CN2CCC(O)C2)CC1 (stereo partly shown) [Example 753]", "CATEGORY": "Yes"}
{"COMPOUND": "COc1cc(-c2ccc3ncc(C(C)=O)c(Nc4ccc(CCN(C)C)cc4)c3c2)cc(Cl)c1O [Example 743]", "CATEGORY": "No"}
{"COMPOUND": "COC1CCN(C[C@H]2CC[C@H](Nc3c(C(=O)C4CC4)cnc4ccc(-c5cc(F)c(O)c(Cl)c5)cc34)CC2)C1 (stereo partly shown) [Example 627]", "CATEGORY": "Yes"}

Pending compound:
Problem: For the compound CN[C@H]1CC[C@H](Nc2c(C(=O)C3CC3)cnc3ccc(-c4cc(F)c(O)c(Cl)c4)cc23)CC1 [Example 523] , is IC50 under 0.2 µM?
Yes
